target: Phosphodiesterase 4 (Homo sapiens, UniProt P27815+Q08499+Q07343+Q08493); assay: Inhibition of human PDE4 after 30 mins; format: protein assay
Field: class. Source value: IC50. Ranges: lower bin: < 1 µM; middle bin: ≥ 1 µM and < 30 µM; upper bin: ≥ 30 µM

Worked cases, answers included:
molecule	assigned.label
CCCCC(=O)c1ccc(OC2CCOC2)c(OC)c1 (stereo not given)	upper bin
CCCC(=O)c1ccc(OC)c(OC2CCOC2)c1 (stereo not given)	lower bin
O=C(CCCc1ccccc1)c1ccc(OC(F)F)c(OC2CCOC2)c1 (stereo not given)	lower bin
CCCC(=O)c1ccc(OC(F)F)c(Oc2ccccn2)c1	upper bin

Query: Exam item: assign O=C(CCC1CCCCC1)c1ccc(OC(F)F)c(OC2CCOC2)c1 (stereo not given) to the correct category.
Reply: middle bin

Query: Category lookup for the molecule O=C(CC1CCCCC1)c1ccc(OC(F)F)c(OC(F)F)c1
Reply: middle bin

Query: Note: place this molecule into its band. Item: O=C(CCc1ccccc1)c1ccc(OC(F)F)c(OC(F)F)c1
Reply: lower bin

###

Biological target: UniProt:Q53I59
Sequence (Q53I59 whole entry): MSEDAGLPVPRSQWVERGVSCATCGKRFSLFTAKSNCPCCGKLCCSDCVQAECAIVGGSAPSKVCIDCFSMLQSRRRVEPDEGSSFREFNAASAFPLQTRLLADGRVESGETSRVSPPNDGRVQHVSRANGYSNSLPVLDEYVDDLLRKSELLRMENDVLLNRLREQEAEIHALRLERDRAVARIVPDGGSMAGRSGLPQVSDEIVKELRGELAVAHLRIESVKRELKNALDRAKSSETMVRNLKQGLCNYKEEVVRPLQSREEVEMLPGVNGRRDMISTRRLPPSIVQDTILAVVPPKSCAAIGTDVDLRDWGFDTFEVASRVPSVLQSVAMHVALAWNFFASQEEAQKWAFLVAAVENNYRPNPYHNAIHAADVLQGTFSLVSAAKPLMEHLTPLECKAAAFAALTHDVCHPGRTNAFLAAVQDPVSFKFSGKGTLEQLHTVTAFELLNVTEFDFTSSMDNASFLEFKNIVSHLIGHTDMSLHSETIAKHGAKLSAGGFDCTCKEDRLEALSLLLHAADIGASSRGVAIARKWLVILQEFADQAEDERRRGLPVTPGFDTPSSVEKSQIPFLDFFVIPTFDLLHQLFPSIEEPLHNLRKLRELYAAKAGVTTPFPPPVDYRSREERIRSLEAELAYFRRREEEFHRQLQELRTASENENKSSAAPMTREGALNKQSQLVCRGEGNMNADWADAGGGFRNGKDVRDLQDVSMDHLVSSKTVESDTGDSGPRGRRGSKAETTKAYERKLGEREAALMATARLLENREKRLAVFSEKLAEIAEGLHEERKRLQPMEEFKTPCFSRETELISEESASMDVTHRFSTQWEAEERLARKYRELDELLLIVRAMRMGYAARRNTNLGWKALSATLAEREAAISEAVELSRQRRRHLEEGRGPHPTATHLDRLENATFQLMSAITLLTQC
Label true when IC50 is strictly below 5 µM; at or above that, label false.

compound	target.of.assay	assigned.label
CSc1noc(-c2ccc(S(=O)(=O)NCc3ccccc3)s2)c1C#N	UniProt:Q53I59	true

Switching to the query record.
Query: Find out if reported IC50 for O=C(CCc1ccccc1)c1ccc(OC(F)F)c(OC2CCOC2)c1 (configuration not stated) is less than 5 µM
Reply: true

###

target: Cyclic nucleotide specific phosphodiesterase (Trypanosoma cruzi)
reported.property: IC50 (µM)
Numeric answer only, unit µM assumed.

Query: What is its IC50 for Cyclic nucleotide specific phosphodiesterase (Trypanosoma cruzi)? Entry: CCCC(=O)c1ccc(OC2CCN(C(=O)OC(C)(C)C)CC2)c(OC)c1
Reply: 6.5

Query: Requested read-out IC50, target or system Cyclic nucleotide specific phosphodiesterase (Trypanosoma cruzi), entry O=C1c2ccccc2S(=O)(=O)N1Cc1nc2ccccc2s1
Reply: 5.5

###

assay: Cytotoxicity against rat L6E9 myoblasts upto 1 uM
reported.property: Activity

smiles.str	reported.property	value.observed
O=C(Nc1ccc(S(=O)(=O)N2CCCCC2)cc1)NC1CCCC1	Activity	Toxic
O=S(=O)(Cc1noc(-c2ccno2)n1)Cc1ccco1	Activity	Toxic
CCOC(=O)Cc1csc(NC(=O)Nc2ccc(Cl)c(Cl)c2)n1	Activity	Toxic
O=S(=O)(Cc1noc(-c2ccc(Cl)cc2)n1)c1ccccn1	Activity	Toxic

###

Reported log10 of IC50 values for a set of compounds
biological target: Phosphodiesterase 4 (Homo sapiens, UniProt P27815+Q08499+Q07343+Q08493); assay: Inhibition of human PDE4 after 30 mins; format: protein assay
A value of 2 here means IC50 of 100 in µM, since values are log10.

Some solved cases for reference:
compound	value.observed
CCCCC(=O)c1ccc(OC)c(OC2CCOCC2)c1	-0.14
CCCC(O)c1ccc(OC)c(OC2CCOC2)c1 (stereo not drawn)	2.00

Query: Form field: log10 of IC50 recorded for CCCC(c1ccc(Oc2ccccn2)c(OC)c1)c1cnc2ccccc2c1 (stereo not drawn) with Phosphodiesterase 4 (Homo sapiens, UniProt P27815+Q08499+Q07343+Q08493) (enter value)
Reply: 0.78

Query: API: value(readout=log10 of IC50, system=Phosphodiesterase 4 (Homo sapiens, UniProt P27815+Q08499+Q07343+Q08493)) for record COc1ccc(C(=O)CCc2ccccc2)cc1OC1CCOC1 (stereo not drawn)
Reply: 0.36

Query: Look up log10 of IC50 with Phosphodiesterase 4 (Homo sapiens, UniProt P27815+Q08499+Q07343+Q08493) for this compound: O=C(CC1CCCCC1)c1ccc(OC(F)F)c(OC2CCOC2)c1 (stereo not drawn)
Reply: -0.18

Query: Form entry - test system: Phosphodiesterase 4 (Homo sapiens, UniProt P27815+Q08499+Q07343+Q08493); read-out: log10 of IC50; compound: O=C(CCCc1ccccc1)c1ccc(OC(F)F)c(OC(F)F)c1
Reply: 1.64

Query: Which log10 of IC50 is reported with Phosphodiesterase 4 (Homo sapiens, UniProt P27815+Q08499+Q07343+Q08493) for this entry: CCCCC(=O)c1ccc(OC2CCN(C(=O)OC(C)(C)C)CC2)c(OC)c1 ?
Reply: 1.97

Query: Reported log10 of IC50 for Phosphodiesterase 4 (Homo sapiens, UniProt P27815+Q08499+Q07343+Q08493), given CCCC(O)c1ccc(OC)c(OC2CCOCC2)c1 (stereo not drawn) ?
Reply: 2.00

###

Record set of pIC50 for target or system UniProt:Q53I59.
Keep it numeric: pIC50 is minus log10 of the concentration in mol/L.

Previously resolved entries follow.
compound	value.observed
CC(C)(C)c1cc2ncnc(NNC(=O)c3cccs3)c2s1	5.20
CCCCC(=O)c1ccc(OC2CCOC2)c(OC)c1 (stereo not given)	5.29
CCOC(=O)c1nc(C)nc(Sc2nnc(-c3ccccc3)[nH]2)c1C	5.34
COc1ccc(C(=O)CC2CCCCC2)cc1OC1CCOC1 (stereo not given)	5.31
CCCCC(=O)c1ccc(OC2CCN(C(=O)OC(C)(C)C)CC2)c(OC)c1	5.51

Now consider a different compound.
Query: Checklist item: pIC50 tested on UniProt:Q53I59, entry O=C(CC1CCCCC1)c1ccc(OC(F)F)c(OC2CCOC2)c1 (stereo not given) , value?
Reply: 5.60

###

Biological target: Cyclic nucleotide specific phosphodiesterase (Trypanosoma cruzi, UniProt Q53I59)
Sequence (Q53I59 whole entry): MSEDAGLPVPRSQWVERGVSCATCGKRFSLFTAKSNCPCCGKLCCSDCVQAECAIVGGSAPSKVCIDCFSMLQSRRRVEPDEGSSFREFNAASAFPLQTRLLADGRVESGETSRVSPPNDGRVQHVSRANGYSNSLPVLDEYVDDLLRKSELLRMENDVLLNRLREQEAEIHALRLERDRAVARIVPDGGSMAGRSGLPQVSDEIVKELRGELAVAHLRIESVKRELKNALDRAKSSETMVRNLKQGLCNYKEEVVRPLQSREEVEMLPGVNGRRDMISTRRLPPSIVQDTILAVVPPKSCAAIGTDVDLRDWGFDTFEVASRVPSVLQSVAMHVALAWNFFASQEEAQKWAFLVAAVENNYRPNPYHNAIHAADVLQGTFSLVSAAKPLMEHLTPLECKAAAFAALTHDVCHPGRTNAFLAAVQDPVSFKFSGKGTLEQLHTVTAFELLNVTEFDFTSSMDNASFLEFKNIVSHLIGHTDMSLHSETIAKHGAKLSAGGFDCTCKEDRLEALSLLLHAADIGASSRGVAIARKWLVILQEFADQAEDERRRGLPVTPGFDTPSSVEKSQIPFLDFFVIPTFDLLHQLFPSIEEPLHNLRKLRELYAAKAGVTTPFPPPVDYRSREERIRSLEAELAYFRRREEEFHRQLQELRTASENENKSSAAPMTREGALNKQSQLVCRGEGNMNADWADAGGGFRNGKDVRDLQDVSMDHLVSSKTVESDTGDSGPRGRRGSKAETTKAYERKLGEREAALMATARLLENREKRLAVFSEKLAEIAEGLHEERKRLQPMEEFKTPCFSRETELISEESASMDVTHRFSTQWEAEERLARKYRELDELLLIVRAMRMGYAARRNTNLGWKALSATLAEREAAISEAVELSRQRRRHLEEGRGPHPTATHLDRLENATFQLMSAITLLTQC
reported.property: pIC50
Remember the convention: pIC50 equals -log10 of concentration in molar.

smiles.str	value.observed
O=C(CCc1ccccc1)c1ccc(OC(F)F)c(OC(F)F)c1	5.66
O=S(=O)(Cc1noc(-c2ccc(Cl)cc2)n1)c1ccccn1	5.62
CCCC(=O)c1ccc(OC(F)F)c(OC2CCOCC2)c1	5.32

Now examine the next entry.
Query: Quick one: pIC50 of O=C(CC1CCCCC1)c1ccc(OC(F)F)c(OC(F)F)c1 ?
Reply: 5.27
